Target: T1, HE4-GST (human, UniProt Q14508 31-124)
T1 sequence: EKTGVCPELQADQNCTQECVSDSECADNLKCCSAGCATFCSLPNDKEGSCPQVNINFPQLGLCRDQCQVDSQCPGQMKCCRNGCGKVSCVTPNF
Assay: affinity probe capillary electrophoresis; discrepant with anisotropy; TGK: 25 mM Tris, 192 mM glycine, 5 mM KH2PO4, pH 8.3, 25 C, no divalent cations; APCE 10 nM DNA, 1 mg/mL BSA; anisotropy 0.1 mg/mL BSA, HE4-GST 0-750 nM
Conditions: protein: commercial; tags: GST; label: 5' FAM (APCE); 5' TEX615 (anisotropy)
observable: Kd (nM)
The response must be a number in nM with no trailing unit.

Find the measured Kd of CCGTCTTCTGCTTGAAAAAAAAAAA (ssDNA) [L1] and report it.
300
